molecular target: hERG (KCNH2) (Homo sapiens); assay: Inhibition of human ERG at 10 uM by fluorescence polarization relative to control; type: toxicity
Sequence (Q12809 whole entry): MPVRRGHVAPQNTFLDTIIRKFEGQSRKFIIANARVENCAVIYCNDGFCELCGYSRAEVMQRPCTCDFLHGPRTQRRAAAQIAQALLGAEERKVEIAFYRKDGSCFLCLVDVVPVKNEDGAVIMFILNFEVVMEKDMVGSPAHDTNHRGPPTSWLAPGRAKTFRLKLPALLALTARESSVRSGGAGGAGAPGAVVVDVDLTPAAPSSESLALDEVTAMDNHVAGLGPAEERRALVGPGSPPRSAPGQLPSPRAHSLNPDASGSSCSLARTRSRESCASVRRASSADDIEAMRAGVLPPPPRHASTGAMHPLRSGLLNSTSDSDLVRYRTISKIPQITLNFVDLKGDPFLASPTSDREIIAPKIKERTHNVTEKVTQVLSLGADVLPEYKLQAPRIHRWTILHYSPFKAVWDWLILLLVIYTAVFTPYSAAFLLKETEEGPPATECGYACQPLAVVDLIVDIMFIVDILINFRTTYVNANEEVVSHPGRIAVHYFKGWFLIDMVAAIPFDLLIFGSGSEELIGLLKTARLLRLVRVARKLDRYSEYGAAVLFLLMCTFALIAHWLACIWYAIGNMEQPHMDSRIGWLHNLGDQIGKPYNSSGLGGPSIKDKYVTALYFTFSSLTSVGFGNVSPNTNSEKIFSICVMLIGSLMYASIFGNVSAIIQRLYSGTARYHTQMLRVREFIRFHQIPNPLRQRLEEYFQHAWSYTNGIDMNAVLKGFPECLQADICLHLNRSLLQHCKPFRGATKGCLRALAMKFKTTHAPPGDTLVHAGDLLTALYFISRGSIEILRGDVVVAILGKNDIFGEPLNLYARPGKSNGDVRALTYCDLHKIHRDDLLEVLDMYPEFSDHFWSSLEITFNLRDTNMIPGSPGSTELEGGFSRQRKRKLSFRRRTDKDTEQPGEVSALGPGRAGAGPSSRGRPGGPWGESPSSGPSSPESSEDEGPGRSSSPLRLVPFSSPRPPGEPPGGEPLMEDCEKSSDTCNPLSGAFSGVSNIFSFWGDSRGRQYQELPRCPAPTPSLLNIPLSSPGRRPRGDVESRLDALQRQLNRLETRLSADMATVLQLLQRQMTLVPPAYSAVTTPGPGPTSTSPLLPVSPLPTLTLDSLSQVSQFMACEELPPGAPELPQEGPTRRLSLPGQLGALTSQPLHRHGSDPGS
endpoint: inhibition at 10 µM

Request: I am curious: what inhibition at 10 µM value has been reported for `O=C(Nc1cc(Cl)cc(Cl)c1)c1n[nH]c2ccc(Cl)cc12` ?
Result: < 1%

----------
experiment: Selectivity index, ratio of CC50 for African green monkey Vero cells to EC50 for antiviral activity against SARS-CoV-2 expressing nucleocapsid protein infected in African green monkey Vero cells; type: toxicity, cell-based; conditions: read-out: Ratio CC50/EC50
endpoint: selectivity ratio
Give the figure only, with no unit attached.

# chemical_string, selectivity ratio
data = [
    ("Cc1cccc(NC(=O)c2n[nH]c3ccc(Cl)cc23)c1", 1),
]

Okay, next one:
Request: // query selectivity ratio value for entry `N#Cc1ccc(NC(=O)c2n[nH]c3ccc(Cl)cc23)cc1`
Result: 1

----------
target: UniProtKB P10635; assay: Inhibition of CYP2D6 in human liver microsomes using dextromethorphan as substrate at 10 uM preincubated for 5 mins followed by substrate and NADPH addition and measured after 20 mins by HPLC-MS/MS analysis; assay type: ADME, Microsome; conditions: probe dextromethorphan, time 25 min
Sequence (P10635 whole entry): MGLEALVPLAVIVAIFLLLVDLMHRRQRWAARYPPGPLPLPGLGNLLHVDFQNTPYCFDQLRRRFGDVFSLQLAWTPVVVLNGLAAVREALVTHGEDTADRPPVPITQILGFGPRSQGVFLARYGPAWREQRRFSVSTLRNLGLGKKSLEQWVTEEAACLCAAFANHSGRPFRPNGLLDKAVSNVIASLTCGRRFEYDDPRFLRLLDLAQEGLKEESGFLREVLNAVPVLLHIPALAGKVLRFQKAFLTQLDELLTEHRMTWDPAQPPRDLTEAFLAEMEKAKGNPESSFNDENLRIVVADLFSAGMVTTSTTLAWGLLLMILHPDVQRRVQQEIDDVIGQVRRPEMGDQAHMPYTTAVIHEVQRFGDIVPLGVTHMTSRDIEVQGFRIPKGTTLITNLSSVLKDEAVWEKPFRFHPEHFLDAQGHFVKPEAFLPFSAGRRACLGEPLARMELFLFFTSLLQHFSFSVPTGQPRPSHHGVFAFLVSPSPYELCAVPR
endpoint: inhibition at 20 min, 10 µM (%)
Dear colleague, please return just the value in %, with no unit written.

Request: If you can, please state the reported inhibition at 20 min, 10 µM value of `O=C(Nc1cc(Cl)cc(Cl)c1)c1n[nH]c2ccc(Cl)cc12` .
Result: 1

----------
test: Metabolic stability in human liver microsomes assessed as parent compound remaining preincubated for 10 mins followed by NADPH addition and measured after 30 mins by HPLC-MS/MS analysis; type: ADME, Microsome; conditions: time 40 min, read-out: Stability
endpoint: remaining at 0.5 h
Units required after the number.

Request: Find the recorded remaining at 0.5 h belonging to `O=C(Nc1cc(Cl)cc(Cl)c1)c1n[nH]c2ccc(Cl)cc12` and report it.
Result: 97%

----------
Target: CYP1A2 (Homo sapiens)
Sequence (P05177 whole entry): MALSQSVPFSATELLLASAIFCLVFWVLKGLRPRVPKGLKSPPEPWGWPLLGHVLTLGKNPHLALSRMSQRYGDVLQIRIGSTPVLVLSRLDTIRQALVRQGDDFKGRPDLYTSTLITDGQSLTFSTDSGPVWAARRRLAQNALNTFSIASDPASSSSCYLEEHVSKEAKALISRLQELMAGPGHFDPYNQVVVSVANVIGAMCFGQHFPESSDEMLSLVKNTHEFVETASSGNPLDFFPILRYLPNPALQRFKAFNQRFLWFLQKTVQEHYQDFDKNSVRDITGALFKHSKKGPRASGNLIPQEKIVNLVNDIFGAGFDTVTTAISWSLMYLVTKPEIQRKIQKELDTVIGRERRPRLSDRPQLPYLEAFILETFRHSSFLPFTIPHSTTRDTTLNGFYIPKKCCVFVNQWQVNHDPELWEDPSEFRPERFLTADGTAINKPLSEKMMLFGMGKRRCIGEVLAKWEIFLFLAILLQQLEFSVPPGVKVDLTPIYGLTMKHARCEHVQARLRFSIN
Assay: Inhibition of CYP1A2 in human liver microsomes using phenacetin as substrate at 10 uM preincubated for 5 mins followed by substrate and NADPH addition and measured after 20 mins by HPLC-MS/MS analysis
Format: ADME, Microsome
Settings: probe phenacetin, time 25 min
endpoint: inhibition at 20 min, 10 µM (%)
Entry rule: numbers only, all in %.

Request: Fill in: inhibition at 20 min, 10 µM of `O=C(Nc1cc(Cl)cc(Cl)c1)c1n[nH]c2ccc(Cl)cc12` is ___
Result: 11
